# Study System: T1, Recombinant human EGFR (human, UniProt P00533 25-645, limits assumed)
# T1 construct: Immobilized by amine coupling on a carboxymethyl dextran SPR chip; also called epidermal growth factor receptor; surface-immobilized EGFR
# Assay Method Text: SPR, EGFR immobilized, peptide as analyte, 1:1 model
Where no end group is shown, it is not given here.

Binder: WSGENGPGTFYDYEA (also called EGFR-PEP22; No. 22) [Pep22]
Units: M⁻¹ s⁻¹
kon: 43500
--
Binder: WSGENGPGFYDYEA (not fully specified, Designed cetuximab mimic peptide for EGFR; Unlabelled in SPR; also called EGFR-PEP11; FITC-Pep11) [Pep11]
Units: M⁻¹ s⁻¹
kon: 100000
--
Binder: AEYDFYGPGNEGSW (also called No. 24) [Pep24]
Units: M⁻¹ s⁻¹
kon: 14300
--
Binder: WSGENGPGYFDYEA (Designed cetuximab mimic peptide for EGFR, made by synthesis; also called No. 6) [Pep6]
Units: M⁻¹ s⁻¹
kon: 1210
